Test system: RXRa homodimer (NR concentration 180 nM)
ASSAY_PROTOCOL: PBM binding z-score (relative to random genomic background probes); higher = stronger binding; sequences stand for … in GC…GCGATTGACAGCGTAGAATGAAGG
Each record's class is read off its PBM binding z-score using these ranges: low = under 2, middle = from 2 up to 5, high = 5 and over

{"RESIDUE_CODES": "CCTACTGGGCCAAGGTCATTGCTCAGTCAAAGCA", "ASSIGNED_CLASS": "middle"}
{"RESIDUE_CODES": "CTATGTATGTTAAGGGGGTCATTCAGTTTGAAAG", "ASSIGNED_CLASS": "high"}
{"RESIDUE_CODES": "TCGAGGAGGTTACGGGGGCATTCAGGGATGAAGA", "ASSIGNED_CLASS": "middle"}
{"RESIDUE_CODES": "CACACTAGGTCAAGAGGTCAAAGTCCGCTTCCCG", "ASSIGNED_CLASS": "high"}
{"RESIDUE_CODES": "TTACAAAGGTGAGCTGAGGTCGTTGATCCAACTC", "ASSIGNED_CLASS": "middle"}
{"RESIDUE_CODES": "AGTCCAAGTTCACTAGGTAACGTAAGATTCAGCT", "ASSIGNED_CLASS": "low"}
{"RESIDUE_CODES": "CCTCGGAGGACAACCGGAGGTCAGAGCTGCCAGA", "ASSIGNED_CLASS": "low"}
{"RESIDUE_CODES": "ATCGAAAGGTGGACGAGGTGAGTATACACCGTTT", "ASSIGNED_CLASS": "low"}
{"RESIDUE_CODES": "TAGCCAAGGTCATTCAGGGGCCAGTATAGAAAGC", "ASSIGNED_CLASS": "high"}
{"RESIDUE_CODES": "TGAATGAGGTGAAAGATCAGGGAACGTGGCGTCG", "ASSIGNED_CLASS": "middle"}
{"RESIDUE_CODES": "CTATGTAGGTTAAGGGGCTCATTCAGTTTGAAAG", "ASSIGNED_CLASS": "low"}
{"RESIDUE_CODES": "ATCGAAAGGTCGAAAGTGAGTATACCCACCCGAA", "ASSIGNED_CLASS": "middle"}
{"RESIDUE_CODES": "CTATGTAGGTTAATGGGGTCATTCAGTTTGAAAG", "ASSIGNED_CLASS": "high"}
{"RESIDUE_CODES": "AGTCAAAGTTGATCTAGGTAACGTAAGATATGCT", "ASSIGNED_CLASS": "low"}
{"RESIDUE_CODES": "ATCGAAACGTCGACGAGGTGAGTATACACCGTTT", "ASSIGNED_CLASS": "low"}
{"RESIDUE_CODES": "CGAACTAGGTAAAGGACAGTGAATCTCCGCACGC", "ASSIGNED_CLASS": "low"}
{"RESIDUE_CODES": "CGTCAAAGTTCAAGTTAACGTAACAGAAAGCAGC", "ASSIGNED_CLASS": "high"}
{"RESIDUE_CODES": "CTATGTAGCTTAAGGGGGTCATTCAGTTTGAAAG", "ASSIGNED_CLASS": "high"}
{"RESIDUE_CODES": "GTACCAAGGTGAATAGGTCGTTGATGAGTAGGCG", "ASSIGNED_CLASS": "low"}
{"RESIDUE_CODES": "CCTACTGGGCCACGTAAGGTCATTGATTCAGTGA", "ASSIGNED_CLASS": "middle"}
{"RESIDUE_CODES": "CCTACAGGGCCAAAGGTCATTGATTCCAATGCTC", "ASSIGNED_CLASS": "high"}
{"RESIDUE_CODES": "CGAACTAAGTCATCCAGGACAGTGAATACATTGA", "ASSIGNED_CLASS": "low"}
{"RESIDUE_CODES": "ATATCTAGGTAAAAGTTCAGTGAATCCCGAGGAT", "ASSIGNED_CLASS": "low"}
{"RESIDUE_CODES": "CTATGTAGGTTTAGGGGGTCATTCAGTTTGAAAG", "ASSIGNED_CLASS": "middle"}
{"RESIDUE_CODES": "TATCCTAGGTCAGATCGGGCCAGTATACGCTATA", "ASSIGNED_CLASS": "middle"}
{"RESIDUE_CODES": "GCTTACGGGTCAAAAGTTATAGCATGAATAGAAT", "ASSIGNED_CLASS": "middle"}
{"RESIDUE_CODES": "TCGAGTAGGTTACGGGGGCATTCTGGGATGAAGA", "ASSIGNED_CLASS": "middle"}
{"RESIDUE_CODES": "TTACCAAGGTGACCTGAGGTCGTTGATCCAACTC", "ASSIGNED_CLASS": "middle"}
{"RESIDUE_CODES": "TCGAGTAGGTTTCGGGGGCATTCAGGGATGAAGA", "ASSIGNED_CLASS": "low"}
{"RESIDUE_CODES": "CCTTACGGGTCACTCCAGGTTCTAGCATCGGAGT", "ASSIGNED_CLASS": "middle"}
{"RESIDUE_CODES": "ATATGTAAGTTAGGGTCATTCAGAAAGTAGGGAA", "ASSIGNED_CLASS": "high"}
{"RESIDUE_CODES": "CTGTGTAGGTTAAGGGGGTCATTCAGTTTGAAAG", "ASSIGNED_CLASS": "high"}
{"RESIDUE_CODES": "CGAACTAGGCCAAAGGACAGTGAAAGGCGACGTA", "ASSIGNED_CLASS": "low"}
{"RESIDUE_CODES": "ATCGAATGGTCGAAGGTGAGTATACCCACCCGAA", "ASSIGNED_CLASS": "low"}
{"RESIDUE_CODES": "CGTCCAAGGTCAAAGGTCAGCGAAGAGATGACGG", "ASSIGNED_CLASS": "high"}
{"RESIDUE_CODES": "CTATGTAGGTTATGGGGGTCATTCAGTTTGAAAG", "ASSIGNED_CLASS": "high"}
{"RESIDUE_CODES": "ATATGTCGGTTAGGGTCATTCAGAAAGTAGGGAA", "ASSIGNED_CLASS": "middle"}
{"RESIDUE_CODES": "ATACCAAGGTTATCGTGAGGTCGTTGATACTAAC", "ASSIGNED_CLASS": "middle"}
{"RESIDUE_CODES": "CCTACTGGGCCATCAGGTGATTGATATCAACGTT", "ASSIGNED_CLASS": "low"}
{"RESIDUE_CODES": "ACTAGGAGGACAAAGGTCAGAGCTACGCCAGTGA", "ASSIGNED_CLASS": "high"}
{"RESIDUE_CODES": "ACTTACGGGTCAACGGGGTTATAGCACGCGTATA", "ASSIGNED_CLASS": "high"}
{"RESIDUE_CODES": "ATATGTAGGTTAGGGGCATTCAGAAAGTAGGGAA", "ASSIGNED_CLASS": "low"}
{"RESIDUE_CODES": "TCTCGGAGGACACGAAAGGTCAGAACTCGACATC", "ASSIGNED_CLASS": "middle"}
{"RESIDUE_CODES": "CGAACTAGGTCAAAGGACAGTGAGAGGCGACGTA", "ASSIGNED_CLASS": "middle"}
{"RESIDUE_CODES": "ATATGTAGGTCATCGGGTCATTCAGTTTGCGCAT", "ASSIGNED_CLASS": "high"}
{"RESIDUE_CODES": "CGGACTAGGTCACCAGGACAGTGAAGAGGTTGGA", "ASSIGNED_CLASS": "middle"}

Reference for the values: the supplement of paper PMC6555819
